The values you see were collected from patent US9107964B2.

System: EMT6 tumor-bearing model mice
method-description: Biodistribution in tumor and organs of tumor-bearing mouse (Example 14)
Assay type: in vivo, mouse (Balb/c nu/nu)
settings: 60 minutes after administration, mean
readout-label: Urine (% ID)
Field: numeric (% ID). Do not append units.

Record excerpt, results attached:
>  <compound>
O=[N+]([O-])c1nccn1CCC(CO)(CO)C[18F]

>  <study-system>
EMT6 tumor-bearing model mice

>  <Urine, % ID>
45.80

$$$$
>  <compound>
O=[N+]([O-])c1nccn1CC(O)C[18F] (stereo not shown) [[^18F]FMISO, [^18F]fluoromisonidazole, reference compound]

>  <study-system>
EMT6 tumor-bearing model mice

>  <Urine, % ID>
34.98

$$$$
>  <compound>
O=[N+]([O-])c1nccn1CC(CO)(CO)C[18F]

>  <study-system>
EMT6 tumor-bearing model mice

>  <Urine, % ID>
62.13

$$$$

Let's switch to this compound now.
For the compound shown here, O=[N+]([O-])c1nc(CO)cn1CC(CO)(CO)C[18F] , give the reported Urine.
80.42
